The origin of these recorded values is the nanobody polyreactivity screen of Harvey et al. (2022).

experiment: yeast display, Sf9 membrane polyspecificity reagent, FACS + sequencing; frameworks hold sequencing errors
METRIC NAME: polyreactivity (PSR sort gate)

See these solved cases before continuing.
[[record]]
seq_text = "QVQLVESGGGLLQAGGSLRLSCADRRTLSFYAKGCSIQAPGKERELVAAISRSGGSTYYADSEKGRFTISRDNAKNTGKLQMNRLKPEDTAVYYFAARSSGGYDYWGQGTQVTVSS"
result = "high polyreactivity"

[[record]]
seq_text = "QVQLVESGGGLVQAGGSLRLSCAASGRIFEYNAMGWYRQAPGKERELVAAITSDGSTNYADSVKGRFTISRDNEKNTVYLQMNSLKPEDTAVYYCNTRYSLYTKYAYYDEHDYWGQGTQVTVSS"
result = "low polyreactivity"

[[record]]
seq_text = "QVQLVEAGGGLVQAGGSLRLSCAASGYTFGKNAMGWYRQAPGKERELVAAITYSGGSTYYADSVKGRFTISRDNAKNTVYLQMNSLKPEDTAVYYCAADNPSDVYDTWVYYWGQGTQVTVSS"
result = "high polyreactivity"

[[record]]
seq_text = "QGQLVESGGGLVQAGGSLPLSCAASGFTFRWNTMGWSRQGPGKEREFVASISQRGGRTFYADSVKGRFTISRDNAKNTVYIQMNCQKPEDTAVYFCNARGHRAVPGDELGYWGQGTQVTVSS"
result = "low polyreactivity"

[[record]]
seq_text = "QVQLVESGGGLVQAGGSLRLSCAASGSTFGDYAMGWYRQAPGKERELVAAISVRGGSTYYADSVKGRFTISRDYAQNTVYLQMNSLKPEDTAVYYCNKDLYRYPGYDSWGQGTQVTVSS"
result = "high polyreactivity"

[[record]]
seq_text = "QGQLVETGGGLVQAGGSLRLSCDASGSIFYSNRGSYRQAPGKESEFVSAISGSGVRTYYADSLKGRFTISRDNAKNTVYLQMNSLKPEDNEVYYCNAGRRQDYRYNYWGQGTQVTVSS"
result = "high polyreactivity"

[[record]]
seq_text = "QVQLVESGGGLVQAGGSLRLSCSASGRIFSTYAMGWYRQAPGKERELVAAINKIGGSTYYADSVKGRFTISRDNAKNTVYLQMNSLKPEDTAVYYCAADAPYYPVRRYYYWGQGTQVTVSS"
result = "low polyreactivity"

[[record]]
seq_text = "QVQLVESGGGLVQAGGSLRLSCAASGNTYGRYAMGWYRQAPGKERELVAAISSSGTSTYYADSVKGRFTISRDNAKNTVYLQMNSLKPVDTAVYNCGAVYWTFWGTIASRYDYWGQGTQVTVAS"
result = "high polyreactivity"


polyreactivity (PSR sort gate) for QVQLVESGGGLVQAGGSLRISCAASGYIFGTYAMGWYRQAPGKERELVAAISSTGRTYYADSVKGRFTISLDNAMNNVYLQMNRLKPEYTAVYYCAADVRTPSEGYDYWGQGTQVTVSS ?
high polyreactivity

polyreactivity (PSR sort gate) for QVQLVESGGGLVQAGGSLRLSCAGYGLTFEYYTMGWYRQAPGKGRELVAAITSSGGSTYYADSVKGRFTISRDNSKNTFYLQMISLKPEDTAVYYCNAYLTYEFPSYDYWGQGTQVTVSS ?
low polyreactivity

polyreactivity (PSR sort gate) for QVQDVESGGGLVQAGGSLRLSCAASGRTIDPNAMGWYRQAPGKERELVAAITRTGVRTYYADSVKGRFTISRDNAKNTVYLQMNSLKPEDTAVYYCNRYGARSNDYWGQATQVTVSS ?
low polyreactivity

###

assay: yeast display, Sf9 membrane polyspecificity reagent, FACS + sequencing; frameworks hold sequencing errors
METRIC NAME: polyreactivity (PSR sort gate)

See these solved cases before continuing.
[[record]]
seq_text = "QVQLVESGGGLVQAGGSLRLSCAASGITFYRNAMGWYRQAPGKEMELVAAITWNGGRTYYADSVKGRFTISRDNAKNTVYLQMNSLKPEDTAVYYCAADSGTRNLASYRYYYWGQGTQVTVSS"
metric_name = "polyreactivity (PSR sort gate)"
result = "low polyreactivity"

[[record]]
seq_text = "QVQLVESGGRLVQAGGSLRLRCAASGSIFGGYTMGRSRQAPGKERELVAAISRRGGNTYYADSVKGRFTISRDNAKNTVYLQMNSLKPEDTAVYYGAVRWPSARIPVKLDYWGQGTQVSVSS"
metric_name = "polyreactivity (PSR sort gate)"
result = "high polyreactivity"

[[record]]
seq_text = "QLQLVESGGGLVQAGGSLRITCAASGSTFLTYSMGWYRQAPGKESELVAGISYSTGSTYYADSVKGRFTISRDNAKYTVYLQMNSLKPEDTAVYYCAADEWDCLWYYYYFNYEYWGQGTQVTVSS"
metric_name = "polyreactivity (PSR sort gate)"
result = "low polyreactivity"

[[record]]
seq_text = "QVQLVESGGGLVQAGGSLRLSCAASGLTFVKNVMGWYRQAPGKERELVAAISRRGGSTYYADSVKGRFTISRDNAKNTVYLQMNSLKPEDTAVYYCNAVLNQLSYIYPAVGYWGQGTQVTVSS"
metric_name = "polyreactivity (PSR sort gate)"
result = "high polyreactivity"

[[record]]
seq_text = "QVQLVESGGGLVQAGGSLRLSCAASGRIFTPYAMGWYRQAPGKERELVAVIRDGSTYYADSVKGRFTISRDNAKNTVYLQMNSLKPEDTAVYYCAVRHRYTRAYWGRDYWGQGTQVTVSS"
metric_name = "polyreactivity (PSR sort gate)"
result = "low polyreactivity"


polyreactivity (PSR sort gate) for QVQLVESGGGLVLAGGSLRLSCAASGIIFYYYTMGWYRQAPGKERELVAWSGGNTNYADSVKGRFTISRDNAKNTVYLQMNSLIPEDSAVYYCNALAIWSDDWDQWISYADDYWGQGTQVTVSS ?
low polyreactivity

###

test: yeast display, Sf9 membrane polyspecificity reagent, FACS + sequencing; frameworks hold sequencing errors
METRIC NAME: polyreactivity (PSR sort gate)

See these solved cases before continuing.
[[record]]
seq_text = "QVQLEESGGGLVQAGGSLRLSCAASGLIFGHNAMGWYRQAPGKERELVAAISRSGTSTYYADSVKGRFTISRDNAKNTVYLQMNSLKPEDNAVYYCAAENYYTAGGSGPIYRRVYWGQGTQVTVSS"
metric_name = "polyreactivity (PSR sort gate)"
result = "low polyreactivity"

[[record]]
seq_text = "QVKLVDSGGGLVQAGGSLRLSCAASGRTFRYYTMGWYRQAPGTERELVAAITRNVGRTYYADSVKGRFTISRDNAKNTVYLQMNSLKPEDTAVYYCAAGTYDGGYHYDYWGQGTQLTVSS"
metric_name = "polyreactivity (PSR sort gate)"
result = "high polyreactivity"

[[record]]
seq_text = "QVQLVESGGGLVQAGGRLRLSCAASGTTAENVMGWYRQAPGKERELVAAISSRGGSTYYADSVKGRFTISRDNAKNTVYLQKNSLKPEDTAVYYCAAEYVSHFSGYRYDYWGQGTHVTVSS"
metric_name = "polyreactivity (PSR sort gate)"
result = "low polyreactivity"

[[record]]
seq_text = "QVQLVESGGGLVQAGGSLRLSCAASGFTFDYNAMGWYRQAPGKERELVAAISNTGDSTYYADSVKGRFTISRDNAKNTVYLQMNSLKPEDTAVYYCAATSVPRYYYWGQGTQVTVSS"
metric_name = "polyreactivity (PSR sort gate)"
result = "low polyreactivity"

[[record]]
seq_text = "QVQIVESGGGLVQAGGSLRLSCAASGSTSLVNAMGWYRQAPGKESELVAAITRGGNTYYADSVKGRFTISRDNAKNTVYLQMNSLKPEDTAVYYCAADFWRFYYEYDYWGQGTQVTVSS"
metric_name = "polyreactivity (PSR sort gate)"
result = "low polyreactivity"


polyreactivity (PSR sort gate) for QVQLVESCGGLVQAGGSLRLSCAPSGSTIPPNAMGWNRQAPRQERELVADSSDSSTSYADSVKGRFSISRDNAKNTVYLQMKSQKPEDTAVYYCAAADAGLRSKSYGQQYDYWGQGTQVTVSS ?
low polyreactivity

###

test: yeast display, Sf9 membrane polyspecificity reagent, FACS + sequencing; frameworks hold sequencing errors
METRIC NAME: polyreactivity (PSR sort gate)

[[record]]
seq_text = "QVQLVESGVGLVQAGGSLRLSCAASGITFSSYAMGWYRQAPGKERELVAAITRSGSTTYADSVKGRFTISRDNAKNTVYLQMNSLKPEDTAVYYCAVDYYYLTGGVDYWGQGTQVTVSS"
result = "low polyreactivity"

[[record]]
seq_text = "QVHLVESGGGLVQAGGSLRLSCAASGRIFRYYAIGWYRQAPGKERELVAAITWRGDSTYYADSVKGRFTISRDNAKNTVYLQMNSLKPEDTAVYYCNKRWTDKYDSWGQGTQVTVSS"
result = "high polyreactivity"

[[record]]
seq_text = "QVQLVESGGGLVQAGGSLRLSCAASGSIFRSYALGWYRQSPGKERELVASISRRGGSTYYADSVKGRFTISRDNAKNTVYLQMNSLKPEDTAVYYCAAVRYNSRVSTTPSEMYYWGQGTQVTVSS"
result = "low polyreactivity"

[[record]]
seq_text = "QVQLVESVGGLVQAGGSLRLSCAASGRIFFYYGRGWYRQAPGKERELVAAITKRSSSTYYADSVKGRFTISRDNAKNTVYLQMNSLKPEDTAVYYCNAYPYRYVRRMDYWGQGTQVTVSS"
result = "high polyreactivity"


Then there is this sequence:
polyreactivity (PSR sort gate) for QVQLVESGGGLVQAGGSLRLSCAASGFIFDNYAMGWYRQAPGKERELVAAISRSGGSTYYADSVKGRFTISRDNAKNTVYLQMNSLKPEDTAVYYCATSGPRGWSLHDYWGQGTQVTVSS ?
high polyreactivity
